Field pIC50: reported value for Beta-2 adrenergic receptor (Homo sapiens, UniProt P07550); entries drawn from several documents.
pIC50: −log10 of the molar value.
Property: pIC50

{"Compound": "CCCCCCc1cccc(N2CCc3cc(S(=O)(=O)Nc4ccccc4)ccc32)n1", "Reported measurement": 6.85}

I = CCCCCCCNC(=O)Nc1ccc(S(=O)(=O)Nc2ccc(CCNC[C@H](O)COc3ccc(O)cc3)cc2)cc1
II = NCCCCCOC[C@H]1O[C@@H](OCCc2c[nH]c3ccccc23)[C@H](OCc2ccccc2)C[C@@H]1OCc1ccccc1
III = OCc1cc(C(O)CNCCc2ccc(NCC(O)c3ccccc3)cc2)ccc1O (centres undefined)
IV = COc1ccc(CC(C)(C)NCC(O)COc2cccc(Cl)c2Cl)cc1 (racemic)
V = CNC(=O)N1CCc2cc(S(=O)(=O)Nc3ccccc3)ccc21
Input line: I would appreciate it if you could sort these 5 compounds by pIC50, starting from the smallest number. Would you mind listing the labels in the order asked for?
Output line: V, II, I, III, IV
